meta.source: the supplement of paper PMC7125110

B1: glmS ribozyme (parent)
chain: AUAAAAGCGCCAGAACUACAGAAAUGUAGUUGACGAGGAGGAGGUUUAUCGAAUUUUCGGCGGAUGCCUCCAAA

variants of: B1; experiment: self-cleavage kobs at 10000 uM GlcN6P; higher = faster cleavage; RNA array; settings: with glucosamine-6-phosphate
Fewer inactive variants are shown than the library holds.
Exercise: for every item that follows, state its recorded self-cleavage kobs at 10000 uM GlcN6P.

C67U U69C : 0.000226 s⁻¹
C10U U31C U57G : < 1e-05 s⁻¹
A6C G41A C68A U69C : < 1e-05 s⁻¹
A6U A53G : 0.000404 s⁻¹
C16U C50U : 0.000106 s⁻¹

Please look at the items below and tell me self-cleavage kobs at 10000 uM GlcN6P for each one, in order.
1. G29U U31C A48C
2. A12U A14G G32U
3. C11A U55C
4. C16G G29A C67A
5. C11U U55G
6. C11U C34U

RESULT:
< 1e-05 s⁻¹
0.00275 s⁻¹
0.000109 s⁻¹
0.000261 s⁻¹
0.00164 s⁻¹
< 1e-05 s⁻¹
